Assign pIC50 to each entry below.
System: Mcl-1 ΔC23 (UniProt Q07820)
Assay Protocol: AlphaScreen GST detection; competitor: biotinylated BakBH3 peptide; second of two values
Bridge positions count the residues as written; N and C are the ends.
Note on units: pIC50 is unitless, being -log10 of a concentration expressed in mol/L.

Consider the binder Ac-IAQELRRIGDEF-NH2 [Linear 12mer Ac-…-NH2] . State its measured pIC50.
6.44

Consider the binder Ac-IAQQLRRIGDQF-NH2 [L2 Ac-…-NH2] . State its measured pIC50.
6.18

Consider the binder Ac-IAQELRRIGDEF-NH2 (linker 4-11 via 1,5‑diaminopentane) [Acetyl-IAQ(E1)LRRIGD(E2)F-amide with a 1,5-diaminopentane linker (second position)] . State its measured pIC50.
8.52

Reference source for all entries: patent US20070197430A1
